test system: Cox Standard albino mice; assay: mouse writhing test (acetic acid induced); format: in vivo; conditions: subcutaneous; 0.6% acetic acid i.p.; dose reducing writhing frequency by 50%
Counter-ions that a name gives are not always drawn.
measuredAttribute: Mouse Writhing, ED50, Subcutaneous (mg/kg)

INSERT INTO measurements (molecule, experimentalresult) VALUES
  ('CN[C@@H](Cc1ccc(O)cc1)C(=O)N[C@H](C)C(=O)NCC(=O)N(C)[C@@H](Cc1ccccc1)CN(C)C [Ala Me H, Diacetate Salt]', 1.81),
  ('CCN(C(=O)CNC(=O)[C@@H](C)NC(=O)[C@H](Cc1ccc(O)cc1)NC)[C@@H](Cc1ccccc1)CN(C)C [Ala Et H, Diacetate Salt]', 1.14),
  ('CCN(C(=O)CNC(=O)[C@@H](C)NC(=O)[C@H](Cc1ccc(O)cc1)NC)[C@@H](Cc1ccc(F)cc1)CN(C)C [Ala Et p-F, Diacetate Salt]', 2.1),
  ('CCN(C(=O)CNC(=O)[C@@H](COC)NC(=O)[C@H](Cc1ccc(O)cc1)NC)[C@@H](Cc1ccccc1)CN(C)C [Ser(Me) Et H, Diacetate Salt]', 3.6);
